Source: patent US7741346B2

Quick list: melting point per entry.

S=C1N(CCCc2ccncc2)CCN1CCc1ccccc1	99.5 to 104 °C
CC(=O)NN(CCC12CC3CC(CC(C3)C1)C2)C(=O)NCCCc1ccncc1	140 to 146 °C
CC(CNC(=O)N(CCN(C)C(=O)OC(C)(C)C)CCC12CC3CC(CC(C3)C1)C2)Cc1ccncc1 (single isomer, unassigned; (+))	122.7 to 123.7 °C

Inquiry: // query melting point value for entry `O=C(NCCCc1ccncc1)N(CCCC(F)(F)F)CCC12CC3CC(CC(C3)C1)C2`
Reply text: 142.6 to 145 °C

Inquiry: Quick one: melting point of `Cl.O=C1CCN(CCC23CC4CC(CC(C4)C2)C3)C(=O)N1CCCc1ccncc1` ?
Reply text: 177 to 178.5 °C

Inquiry: Please report the recorded melting point for `CN(CCN(CCC12CC3CC(CC(C3)C1)C2)C(=O)NCCCc1ccncc1)C(=O)OC(C)(C)C(Cl)(Cl)Cl` .
Reply text: 47 to 52 °C

Inquiry: Quick one: melting point of CCCCCN(CCc1ccccc1)C(=O)NCC(C)Cc1ccncc1 (centres unmarked) ?
Reply text: 49 to 50 °C

Inquiry: Bench note: what melting point did `CN(C)CCN(CCC12CC3CC(CC(C3)C1)C2)C(=O)NCCCc1ccncc1` show?
Reply text: 104 to 106.5 °C

Inquiry: I'd like to know its melting point. The molecule in question is `CCCCCN(CCC12CC3CC(CC(C3)C1)C2)C(=O)NCCCc1cc[n+]([O-])cc1`
Reply text: 97.8 to 127 °C

Inquiry: Quick one: melting point of `O=C(NCCCc1ccncc1)N1CCOCC1` ?
Reply text: 94 to 98 °C

Inquiry: So what does the record say about melting point for `O=C(NCCCc1ccncc1)N(CCCC12CC3CC(CC(C3)C1)C2)CC(F)(F)F` ?
Reply text: 88.9 to 90 °C

Inquiry: Any idea what its melting point is? The molecule is `CC(C)(C)OC(=O)CCN(CCC12CC3CC(CC(C3)C1)C2)C(=O)NCCCc1ccncc1`
Reply text: 124.5 to 127 °C

Inquiry: Which melting point is listed for `CCCCCN(CCC12CC3CC(CC(C3)C1)C2)C(=O)NCCc1cccnc1` ?
Reply text: 112.5 to 114.5 °C

Inquiry: Consider the molecule `O=C(NCCCc1ccncc1)N(CCC12CC3CC(CC(C3)C1)C2)Cc1ccccc1` and give its measured melting point.
Reply text: 130.5 to 135 °C

Inquiry: Reported melting point for `CCCCN(CCCC12CC3CC(CC(C3)C1)C2)C(=O)NCCCc1ccncc1` : what is it?
Reply text: 79.8 to 80.4 °C

Inquiry: Need melting point of `CCCCN(CCC12CC3CC(CC(C3)C1)C2)C(=O)NCCCc1ccncc1` , thanks.
Reply text: 109.5 to 118 °C

Inquiry: Query: melting point; subject: `O=C(NCCCc1ccncc1)N(CCCc1ccccc1)C(c1ccccc1)c1ccccc1`
Reply text: 123 to 124.8 °C

---

Listing of entries alongside the reported melting point.

In the examples that follow, each entry is paired with its recorded melting point.
O=C(NCCCc1ccncc1)N(CCC12CC3CC(CC(C3)C1)C2)CC1CC1	123 to 125 °C
CN(CCN(CCC12CC3CC(CC(C3)C1)C2)C(=O)NCCCc1ccncc1)S(C)(=O)=O	164.9 to 167.2 °C

Lab note: next compound to report on.
Inquiry: Reported melting point, compound CCCCCN(CCC12CC3CC(CC(C3)C1)C2)C(=O)NCC(Cc1ccccc1)Cc1ccncc1 (stereo not drawn) : ____
Reply text: 111 to 116 °C
